- Measured Target: Mouse GABAa receptor
- Assay Name: [3H]-TBOB binding assay, mouse GABAa receptor
- Condition Info: means±S.D., n=3, FIG. 1, read-out: IC50, inhibition of [3H]-TBOB binding
Metric: pIC50
Answers are plain numbers, as −log10 of the molar value.

Exam item: Kindly indicate its recorded pIC50. Item: ClC1=C(Cl)[C@]2(Cl)[C@@H]3[C@@H]4C[C@@H]([C@H]5O[C@@H]45)[C@@H]3[C@@]1(Cl)C2(Cl)Cl [Dieldrin]
Marked response: 5.42

Reference for the values: patent US20100144888A1
